Answer each item with its documented HR40 (concentration required to induce 40% histamine release), patient three.
Biological target: IgE on basophils of ragweed allergic patients
Assay: cell-based or functional assay
One number for each entry, in µg/mL.

binder: AIC-M (covalent conjugate of Amb a 1 and ISS-containing polynucleotide SEQ ID NO:1, medium extent of conjugation) (protein, ragweed, UniProt P27759 26-396, looked up, average of 3.5 to 4.5 oligonucleotides (5' thio ISS oligonucleotide, SEQ ID NO:1) per Amb a 1 molecule, linked through the heterobifunctional linker sSMCC; Amb a 1 blocked with N-ethyl maleimide before activation) AEDLQEILPVNETRRLTTSGAYNIIDGCWRGKADWAENRKALADCAQGFGKGTVGGKDGDIYTVTSELDDDVANPKEGTLRFGAAQNRPLWIIFERDMVIRLDKEMVVNSDKTIDGRGAKVEIINAGFTLNGVKNVIIHNINMHDVKVNPGGLIKSNDGPAAPRAGSDGDAISISGSSQIWIDHCSLSKSVDGLVDAKLGTTRLTVSNSLFTQHQFVLLFGAGDENIEDRGMLATVAFNTFTDNVDQRMPRCRHGFFQVVNNNYDKWGSYAIGGSASPTILSQGNRFCAPDERSKKNVLGRHGEAAAESMKWNWRTNKDVLENGAIFVASGVDPVLTPEQSAGMIPAEPGESALSLTSSAGVLSCQPGAPC
units.symbol: µg/mL
readout.value: 0.03
--
binder: ragweed allergen Amb a 1 (protein, UniProt P27759 26-396, looked up) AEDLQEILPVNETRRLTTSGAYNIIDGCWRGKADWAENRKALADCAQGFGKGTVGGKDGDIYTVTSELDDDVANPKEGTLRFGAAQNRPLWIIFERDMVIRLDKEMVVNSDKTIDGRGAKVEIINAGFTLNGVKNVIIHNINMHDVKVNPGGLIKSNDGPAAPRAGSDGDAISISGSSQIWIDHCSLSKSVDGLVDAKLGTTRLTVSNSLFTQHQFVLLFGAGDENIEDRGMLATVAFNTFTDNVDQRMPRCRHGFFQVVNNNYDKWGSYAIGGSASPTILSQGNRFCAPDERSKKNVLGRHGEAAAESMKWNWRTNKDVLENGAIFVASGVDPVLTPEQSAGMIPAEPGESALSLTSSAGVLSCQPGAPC
units.symbol: µg/mL
readout.value: 0.0003

q: What value of HR40 (concentration required to induce 40% histamine release), patient three has been reported for the following binder? AIC-L (covalent conjugate of Amb a 1 and ISS-containing polynucleotide SEQ ID NO:1, low extent of conjugation) (protein, ragweed, UniProt P27759 26-396, looked up, average of 2-3 oligonucleotides (5' thio ISS oligonucleotide, SEQ ID NO:1) per Amb a 1 molecule, linked through the heterobifunctional linker sSMCC; Amb a 1 blocked with N-ethyl maleimide before activation) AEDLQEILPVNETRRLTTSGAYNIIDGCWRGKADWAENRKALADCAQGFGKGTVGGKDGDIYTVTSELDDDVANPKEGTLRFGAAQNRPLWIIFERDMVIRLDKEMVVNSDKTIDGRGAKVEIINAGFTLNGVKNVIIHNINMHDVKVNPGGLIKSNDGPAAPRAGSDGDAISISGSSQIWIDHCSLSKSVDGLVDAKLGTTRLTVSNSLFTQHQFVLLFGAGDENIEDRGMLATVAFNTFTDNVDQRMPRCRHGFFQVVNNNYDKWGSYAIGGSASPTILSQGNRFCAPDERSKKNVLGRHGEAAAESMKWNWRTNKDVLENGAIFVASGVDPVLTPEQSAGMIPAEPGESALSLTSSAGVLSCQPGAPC
a: 0.01
